Cited source: PubChem BioAssay (NCATS)

# Assay: qHTS of pediatric cancer cell lines to identify multiple opportunities for drug repurposing: Primary screen for Rh41 cells (AID 1347108); note: potency is the fitted concentration of half-maximal effect; nearly all actives have a fitted effect of over 70% in size
# Protocol conditions: Rh41 rhabdomyosarcoma viability, CellTiter-Glo luminescence, 48 h; series mostly up to 46 µM
Inconclusive results are not listed. Calls of active or inactive are those of the source. Calls come from the whole dose curve; as a rule, active = well fitted cell-killing curve with a large enough effect; inconclusive = small, poorly fitted or top-dose-only effect; inactive = no such curve, though single readings can be large or run the other way.
Property: Potency; scope: individual compounds

Examples with answers:
Data point: `c1cc(-c2cnn3cc(-c4ccc(OCCN5CCCCC5)cc4)cnc23)ccn1` ; Potency = 9350 nM (active)

Data point: `CC1=C(CO)C(=O)O[C@@H]([C@@H](C)[C@H]2CC[C@H]3[C@@H]4C[C@H]5O[C@]56[C@@H](O)C=CC(=O)[C@]6(C)[C@@H]4CC[C@]23C)C1` ; Potency = 1180 nM (active)

Data point: `CC(C)(C)OC(=O)Nc1ccc(-c2cc(C(=O)NCCCCCCC(=O)NO)no2)cc1` ; Potency = 3720 nM (active)

Now look at this entry.
Data point: `Cc1c(CN2CCN(S(C)(=O)=O)CC2)sc2c(N3CCOCC3)nc(-c3cnc(N)nc3)nc12` ; Potency = 148 nM (active)
